Entries and their measured growth follow.
- System: RXF 393 renal
- Experiment: NCI-60 one-dose screen, 48 h (100 = growth as untreated, 0 = no growth, -100 = all killed)
- Test parameters: 10 µM unless noted
About 83,000 compounds went through this panel and 20% of them were active in at least one assay; those are over-represented in the sample as a whole.
Readout: growth (%)

[[record]]
smiles_data = "Cn1cc(-c2csc(-c3cn(C)c4ncccc34)n2)c2cc(F)cnc21"
measured_result = 82.4

[[record]]
smiles_data = "O=C(CSc1nc2c(n1Nc1ccccc1)-c1ccccc1SC2)Nc1nc(-c2ccc(Cl)cc2)cs1"
measured_result = 98.8

[[record]]
smiles_data = "O=C(CN1CCCCC1)Sc1nnc2sc3ccccc3n12"
measured_result = 108

[[record]]
smiles_data = "COC(=O)[C@]12CC[C@@H](C)[C@H](C)[C@@H]1C1=CC[C@@H]3[C@@]4(C)C=C(O)C(=O)[C@@]5(C)COC(=C54)C[C@@]3(C)[C@]1(C)CC2"
measured_result = -82.4

